Recorded log10 of Ki values for a group of compounds are listed next.
Target: h-5-HT6 receptor (Homo sapiens, UniProt P50406)
Construct: expressed in transfected cells; host or cells: HEK293 cells (membranes)
Sequence (P50406 whole entry): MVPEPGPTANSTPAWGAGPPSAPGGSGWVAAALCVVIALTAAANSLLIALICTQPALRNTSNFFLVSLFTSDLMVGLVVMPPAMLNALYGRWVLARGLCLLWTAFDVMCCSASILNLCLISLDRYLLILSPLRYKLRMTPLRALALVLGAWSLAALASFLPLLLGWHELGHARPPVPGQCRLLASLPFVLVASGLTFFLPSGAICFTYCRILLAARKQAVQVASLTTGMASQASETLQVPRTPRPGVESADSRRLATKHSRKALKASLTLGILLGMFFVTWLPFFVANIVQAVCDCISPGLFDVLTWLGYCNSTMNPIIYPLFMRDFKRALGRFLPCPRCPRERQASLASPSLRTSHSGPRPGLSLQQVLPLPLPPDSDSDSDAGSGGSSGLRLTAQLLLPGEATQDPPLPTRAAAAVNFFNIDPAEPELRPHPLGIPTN
Test: Human 5-HT6 receptor radioligand binding assay (HEK293 membranes, [3H]-LSD)
Conditions: HEK293 membranes expressing h-5-HT6 receptor, 1 nM [3H]-LSD; geometrical mean; read-out: Ki (5-HT6 Agonist Site Radioligand Binding)
Protocol: (v) Human 5-HT6 Receptor Radioligand Binding Assay Preparation of Membranes by Ultrasonic Treatment and Differential Centrifugation Cells from stable clonal cell lines expressing the corresponding receptor (5-HT6) were washed with PBS (without Ca^++, Mg^++) and harvested in PBS with 0.02% EDTA. […] Protein concentration was determined (BCA-Kit; Pierce) and aliquots stored at −80° C. or in liquid nitrogen for long-term storage. […]
All values: base-10 log of Ki in nM.

Solved entries:
CN1C[C@H]2CNC(=O)c3cc(OCc4cccc(F)c4)ccc3[C@@H]2C1 (relative stereo)    3.50
N#Cc1ccccc1S(=O)(=O)N1Cc2ccccc2[C@@H]2CN(Cc3ccccc3)C[C@H]2C1 (relative stereo)    1.56
O=S(=O)(c1cccc(F)c1)N1Cc2ccccc2[C@@H]2CN(Cc3ccccc3)C[C@H]2C1 (relative stereo)    1.61
O=S(=O)(c1cccc(Cl)c1Cl)N1Cc2ccccc2[C@@H]2CN(Cc3ccccc3)C[C@H]2C1 (relative stereo)    1.23
COc1ccc(CN2C[C@H]3CN(S(=O)(=O)c4cccc(F)c4)Cc4ccccc4[C@@H]3C2)cc1 (relative stereo)    1.16
O=S(=O)(c1cc(Cl)ccc1Cl)N1Cc2ccccc2[C@@H]2CN(Cc3ccccc3)C[C@H]2C1 (relative stereo)    2.24

Next, consider the following compound.
Input: // fetch log10 of Ki given entry Cc1ccc(C)c(S(=O)(=O)N2Cc3ccccc3[C@@H]3CN(Cc4ccccc4)C[C@H]3C2)c1 (relative stereo)
Output: 1.74

----------
Target: 5HT2C receptors (Homo sapiens)
Sequence (P28335 33-458): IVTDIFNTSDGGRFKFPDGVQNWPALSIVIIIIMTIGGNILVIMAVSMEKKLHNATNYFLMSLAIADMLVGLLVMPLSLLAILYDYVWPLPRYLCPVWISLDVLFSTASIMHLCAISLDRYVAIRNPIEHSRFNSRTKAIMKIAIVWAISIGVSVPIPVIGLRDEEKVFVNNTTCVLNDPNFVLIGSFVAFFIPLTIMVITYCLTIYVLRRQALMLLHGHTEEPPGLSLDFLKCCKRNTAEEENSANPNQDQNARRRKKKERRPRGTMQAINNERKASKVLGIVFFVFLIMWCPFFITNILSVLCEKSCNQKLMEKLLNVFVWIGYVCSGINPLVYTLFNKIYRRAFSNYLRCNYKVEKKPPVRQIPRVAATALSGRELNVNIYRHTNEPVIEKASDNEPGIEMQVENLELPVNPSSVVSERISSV
Assay: Human 5-HT2C functional high throughput screening assay in CHO-K1 cells (calcium flux)
Format: cell-based
Set-up: expressed in transfected cells; host or cells: CHO-K1 cells
Settings: CHO-K1; 5-HT2C; maximum functional response as percentage relative to the effect of serotonin; read-out: Emax
Quick reference for Emax among some molecules
Use % as the unit, but write only the number.

Example cases with answers are listed next.
O=C1NC[C@@H]2CN(Cc3ccccc3)C[C@H]2c2cccc(F)c21 (relative stereo) [Example 58]    110
O=C1NC[C@@H]2CN(Cc3ccccc3)C[C@H]2c2c1sc1ccccc21 (relative stereo) [Example 97]    110

Input: Please indicate Emax recorded for CN1C[C@H]2CNC(=O)c3cc(-c4cc(F)c(F)c(F)c4)ccc3[C@@H]2C1 (relative stereo) [Example 322]
Output: 80

----------
molecular target: UniProt P28335; assay: Human 5-HT2C functional high throughput screening assay in CHO-K1 cells (calcium flux); format: cell-based; parameters: expressed in transfected cells; host or cells: CHO-K1 cells; conditions: CHO-K1; 5-HT2C; maximum functional response as percentage relative to the effect of serotonin
Item-by-item account of Emax
Numeric only. Scale: %

CC(C)COc1ccc2c(c1)C(=O)NC[C@@H]1CNC[C@@H]21 [Example 309]    70

Input: Name the recorded Emax of the compound listed here: CC1(C)CCC(Oc2ccc3c(c2)C(=O)NC[C@@H]2CNC[C@@H]32)CC1 (relative stereo)
Output: 100

Input: For the compound CN1C[C@H]2CNC(=O)c3cc(C4CCCCC4)ccc3[C@@H]2C1 (relative stereo) , report Emax.
Output: 80

Input: Given the compound CN1C[C@H]2CNC(=O)c3cc(Cl)ccc3[C@@H]2C1 (relative stereo) , write its reported Emax.
Output: 100

Input: Read the entry Fc1ccc2c(c1)[C@@H]1CNC[C@@H]1CCO2 (relative stereo) and write its reported Emax.
Output: 85

Input: Give a short answer stating reported Emax for O=C1NC[C@@H]2CNC[C@H]2c2cccc(F)c21 (single isomer, unassigned) .
Output: 120

Input: Specify Emax for O=S(=O)(c1ccc(Cl)s1)N1Cc2cccnc2[C@@H]2CNC[C@H]2C1 (relative stereo) and stop.
Output: 110

Input: Using known records, supply Emax for CC(C)Cc1ccc2c(c1)C(=O)NC[C@@H]1CN(C)C[C@@H]21 (relative stereo)
Output: 80

Input: Name the recorded Emax of the compound listed here: CN1C[C@H]2CCN(C)c3ccccc3[C@@H]2C1 (relative stereo)
Output: 90

Input: Using the record for Fc1ccc(COc2cccc3c2OCC[C@H]2CNC[C@H]32)cc1 (relative stereo) , state its measured Emax.
Output: 90

Input: Return Emax for the following compound: `CN1C[C@@H]2CNC(=O)c3cc(-c4ccccn4)ccc3[C@H]2C1`
Output: 90

Input: Using the record for Cc1cccc2c1OCC[C@H]1CNC[C@H]21 (relative stereo) , state its measured Emax.
Output: 95

----------
target: 5HT2B receptors (Homo sapiens); construct: expressed in transfected cells; host or cells: CHO-K1 cells; experiment: Human 5-HT2B functional high throughput screening assay in CHO-K1 cells (calcium flux); format: cell-based; conditions: EC50, 5-HT2B agonist activity; CHO-K1 cells; calcium flux
Sequence (P41595 whole entry): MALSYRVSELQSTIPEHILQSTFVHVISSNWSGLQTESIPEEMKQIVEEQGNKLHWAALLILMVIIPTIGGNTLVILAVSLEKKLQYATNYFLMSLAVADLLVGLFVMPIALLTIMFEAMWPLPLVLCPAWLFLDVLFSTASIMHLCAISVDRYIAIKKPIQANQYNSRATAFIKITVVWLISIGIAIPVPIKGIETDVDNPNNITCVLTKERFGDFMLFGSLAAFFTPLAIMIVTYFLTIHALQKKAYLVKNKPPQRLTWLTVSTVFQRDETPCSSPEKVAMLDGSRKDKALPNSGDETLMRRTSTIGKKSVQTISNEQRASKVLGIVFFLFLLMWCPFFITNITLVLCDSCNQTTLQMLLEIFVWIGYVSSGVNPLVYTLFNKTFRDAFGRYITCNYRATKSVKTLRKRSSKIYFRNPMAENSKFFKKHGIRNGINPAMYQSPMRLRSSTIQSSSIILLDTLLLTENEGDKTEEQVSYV
pEC50: −log10 of the molar value.
Quick rule: pEC50 of at least 7 means Criterion met, below that means Criterion not met.

Would you please look over these solved cases?
Clc1cccc2c1NCC[C@@H]1CNC[C@@H]21 (relative stereo) [Example 392]    Criterion met
Brc1cccc2c1[C@H]1CNC[C@@H]1CCO2 (relative stereo) [Example 377]    Criterion met
COc1cccc2c1[C@H]1CNC[C@@H]1CCO2 (relative stereo) [Example 272]    Criterion not met

Input: Confirm if pEC50 reported for the molecule O=C1NC[C@@H]2CNC[C@H]2c2ccc(-c3ccncc3)cc21 (relative stereo) [Example 177] is 7 or above.
Output: Criterion not met

Input: Quick check: does O=C1NC[C@H]2CNC[C@@H]2c2ccccc21 [Example 44] have pEC50 greater than or equal to 7?
Output: Criterion not met

Input: Threshold query (pEC50 >= 7) on CC(C)Cc1ccc2c(c1)C(=O)NC[C@@H]1CN(C)C[C@@H]21 (relative stereo) [Example 244]
Output: Criterion not met

Input: Has COc1ccc2c(c1)[C@H]1CNC[C@@H]1CCC2=O [Example 259] a recorded pEC50 greater than or equal to 7?
Output: Criterion not met

Input: Identify whether the reported pEC50 of the following molecule is 7 or greater: CC(C)CCOc1ccc2c(c1)C(=O)NC[C@@H]1CN(C)C[C@@H]21 (relative stereo) [Example 171]
Output: Criterion not met

Input: Determine whether measured pEC50 meets or exceeds 7 for Cc1ccc2c(c1)[C@H]1CNC[C@@H]1CCO2 (relative stereo) [Example 290]
Output: Criterion met

----------
target: h-5-HT6 receptor (Homo sapiens); construct: expressed in transfected cells; host or cells: HEK293 cells (membranes); test: Human 5-HT6 receptor radioligand binding assay (HEK293 membranes, [3H]-LSD); conditions: HEK293 membranes expressing h-5-HT6 receptor, 1 nM [3H]-LSD; geometrical mean; read-out: Ki (5-HT6 Agonist Site Radioligand Binding)
Recorded pKi, one value per entry.
Formally, pKi is defined as -log10 of the concentration c, with c in mol/L.

In the examples that follow, each entry is paired with its recorded pKi.
O=S(=O)(c1cccc2ccccc12)N1Cc2ccccc2[C@@H]2CN(Cc3ccccc3)C[C@H]2C1 (relative stereo)    7.43
O=S(=O)(c1cccc(F)c1)N1Cc2ccccc2[C@@H]2CN(Cc3ccc(F)cc3)C[C@H]2C1 (relative stereo)    8.01
COc1ccc(OC)c(S(=O)(=O)N2Cc3ccccc3[C@@H]3CN(Cc4ccccc4)C[C@H]3C2)c1 (relative stereo)    6.31

Input: Give recorded pKi. O=S(=O)(c1ccccc1Br)N1Cc2ccccc2[C@@H]2CN(Cc3ccccc3)C[C@H]2C1 (relative stereo)
Output: 7.39

Input: Supply recorded pKi for COc1cccc(S(=O)(=O)N2Cc3ccccc3[C@@H]3CN(Cc4ccccc4)C[C@H]3C2)c1 (relative stereo) here.
Output: 7.64

Input: Specify reported pKi for the molecule shown: O=C1NCc2ccccc2[C@@H]2CN(S(=O)(=O)c3cccc(Cl)c3Cl)C[C@@H]12 (relative stereo)
Output: 6.68

All figures here come from patent US8846951B2.
